Sourced from patent US20060014680A1

Target Entity: T1, human IL-5Rα extracellular domain harvest with a MAb 179 epitope tag (human, UniProt Q01344 21-342)
T1 construct: extracellular domain; Captured on MAb179-conjugated AlphaScreen acceptor beads; also called IL-5 receptor; IL-5R-α chain ECD
T1 sequence (looked up): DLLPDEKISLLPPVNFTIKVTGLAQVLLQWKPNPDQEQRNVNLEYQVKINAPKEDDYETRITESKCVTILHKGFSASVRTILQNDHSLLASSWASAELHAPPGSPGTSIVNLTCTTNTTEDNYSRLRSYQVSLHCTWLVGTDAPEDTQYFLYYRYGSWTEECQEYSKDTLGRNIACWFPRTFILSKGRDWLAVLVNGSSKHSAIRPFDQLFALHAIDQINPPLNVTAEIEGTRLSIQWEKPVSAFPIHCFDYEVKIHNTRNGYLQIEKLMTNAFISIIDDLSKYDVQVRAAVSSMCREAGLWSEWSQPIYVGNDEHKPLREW
Test Details: alanine scan of AF17121, AlphaQuest competition binding assay on human IL-5Rα ECD with the tracer biotinylated MBP-AF12368 (the assay is named by FIG. 1, not by the sentence)
Positions of bridges follow the written chain, without caps; N, C: chain ends.
Measured percent more potent than AF17121 (SEQ ID NO: 1) of individual entries

input: Please look up its percent more potent than AF17121 (SEQ ID NO: 1): Ac-VDECWRIIAAHTWFCAEE-NH2 (disulfide 4-15 (inferred)) [AF35912 (Ac-Val Asp Glu Cys Trp Arg Ile Ile Ala Ala His Thr Trp Phe Cys Ala Glu Glu-NH2)]
output: ~450%

input: Would you mind telling me what percent more potent than AF17121 (SEQ ID NO: 1) value was observed for Ac-VAECWRIIASHTWFCAEE-NH2 (disulfide 4-15 (inferred)) [AF35920 (Ac-Val Ala Glu Cys Trp Arg Ile Ile Ala Ser His Thr Trp Phe Cys Ala Glu Glu-NH2)] ?
output: ~200%

input: Data request, read-out percent more potent than AF17121 (SEQ ID NO: 1), for Ac-VDECWRIIASHAWFCAEE-NH2 (disulfide 4-15 (inferred)) [AF35910 (Ac-Val Asp Glu Cys Trp Arg Ile Ile Ala Ser His Ala Trp Phe Cys Ala Glu Glu-NH2)]
output: ~135%

input: I'd like to know its percent more potent than AF17121 (SEQ ID NO: 1). The binder in question is Ac-ADECWRIIASHTWFCAEE-NH2 (disulfide 4-15 (inferred)) [AF35921 (Ac-Ala Asp Glu Cys Trp Arg Ile Ile Ala Ser His Thr Trp Phe Cys Ala Glu Glu-NH2)]
output: ~350%

input: Any idea what its percent more potent than AF17121 (SEQ ID NO: 1) is? The binder is Ac-VDACWRIIASHTWFCAEE-NH2 (disulfide 4-15 (inferred)) [AF35918 (Ac-Val Asp Ala Cys Trp Arg Ile Ile Ala Ser His Thr Trp Phe Cys Ala Glu Glu-NH2)]
output: ~675%
